Biological target: recombinant PRL-1 (Homo sapiens, UniProt Q93096)
Construct: 6xHis (N, cleaved yes); made in house; host or cells: E. coli One Shot BL21 Star
Sequence (Q93096 whole entry): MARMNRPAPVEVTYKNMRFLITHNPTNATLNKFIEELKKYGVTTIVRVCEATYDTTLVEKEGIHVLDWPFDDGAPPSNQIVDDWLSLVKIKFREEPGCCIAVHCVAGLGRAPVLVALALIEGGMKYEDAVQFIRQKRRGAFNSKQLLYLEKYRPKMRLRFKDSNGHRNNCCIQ
Assay: In vitro phosphatase assay (DiFMUP hydrolysis), PRL-1; also: test concentration or dose not given here
Format: biochemical
Settings: FDA-approved drug screen; compared to DMSO
Endpoint Label: % Phosphatase Activity (compared to DMSO) PRL-1 (%)
Give just the numeric value; % need not be written.

Input: Value lookup for % Phosphatase Activity (compared to DMSO) PRL-1; key = O=C(O)Cc1ccccc1Nc1c(Cl)cccc1Cl [Diclofenac Sodium]
Output: 100

Input: Value lookup for % Phosphatase Activity (compared to DMSO) PRL-1; key = CC(=O)[C@H]1CC[C@H]2[C@@H]3C=CC4=CC(=O)CC[C@@]4(C)[C@@H]3CC[C@]12C
Output: 91

Input: Value lookup for % Phosphatase Activity (compared to DMSO) PRL-1; key = NC[C@@H]1O[C@H](O[C@H]2[C@@H](O)[C@H](O[C@@H]3[C@@H](O)[C@H](N)C[C@H](N)[C@H]3O[C@H]3O[C@H](CN)[C@@H](O)[C@H](O)[C@H]3N)O[C@@H]2CO)[C@H](N)[C@@H](O)[C@@H]1O.O=S(=O)(O)O [Neomycin sulfate]
Output: 98

Input: Value lookup for % Phosphatase Activity (compared to DMSO) PRL-1; key = Nc1ncn([C@@H]2O[C@H](CO)[C@@H](O)[C@H]2O)c(=O)n1
Output: 78

Input: Value lookup for % Phosphatase Activity (compared to DMSO) PRL-1; key = Nc1nc(N)nc(-c2cc(Cl)ccc2Cl)n1
Output: 84

Input: Value lookup for % Phosphatase Activity (compared to DMSO) PRL-1; key = COc1ccccc1Oc1c(NS(=O)(=O)c2ccc(C(C)(C)C)cc2)nc(-c2ncccn2)nc1OCCO [Bosentan]
Output: 83

Input: Value lookup for % Phosphatase Activity (compared to DMSO) PRL-1; key = Cc1cc2c(cc1S(N)(=O)=O)S(=O)(=O)CCC2
Output: 104

Input: Value lookup for % Phosphatase Activity (compared to DMSO) PRL-1; key = N#C[C@@H]1C[C@@H]2C[C@@H]2N1C(=O)[C@@H](N)C12CC3CC(CC(O)(C3)C1)C2 [Saxagliptin hydrate]
Output: 93

Input: Value lookup for % Phosphatase Activity (compared to DMSO) PRL-1; key = O.S=c1[nH]cnc2nc[nH]c12 [6-Mercaptopurine (6-MP) Monohydrate]
Output: 95

Input: Value lookup for % Phosphatase Activity (compared to DMSO) PRL-1; key = CNC(=O)[C@H](Cc1ccccc1)NC(=O)[C@H](CC(C)C)[C@H](CSc1cccs1)C(=O)NO
Output: 88

Input: Value lookup for % Phosphatase Activity (compared to DMSO) PRL-1; key = CC(=O)N1CCN(c2ccc(OCC3COC(Cn4ccnc4)(c4ccc(Cl)cc4Cl)O3)cc2)CC1 (stereo not shown)
Output: 92

Input: Value lookup for % Phosphatase Activity (compared to DMSO) PRL-1; key = O=c1c(-c2ccc(O)cc2)coc2cc(O)cc(O)c12
Output: 95

Input: Value lookup for % Phosphatase Activity (compared to DMSO) PRL-1; key = CCCC(CCC)C(=O)O [Divalproex Sodium]
Output: 105

Input: Value lookup for % Phosphatase Activity (compared to DMSO) PRL-1; key = CCOC(=O)[N-]c1cn(N2CCOCC2)n[o+]1
Output: 99

Input: Value lookup for % Phosphatase Activity (compared to DMSO) PRL-1; key = NC(=O)c1cc(N2CC2)c([N+](=O)[O-])cc1[N+](=O)[O-]
Output: 100

Input: Value lookup for % Phosphatase Activity (compared to DMSO) PRL-1; key = CC#CCn1c(N2CCC[C@@H](N)C2)nc2c1c(=O)n(Cc1nc(C)c3ccccc3n1)c(=O)n2C
Output: 115
